B1: EHEE_rd2_1257 (parent)
chain: EEERTFTNEEEARKAKKEAEKRGLRVTVTKDGTTWRVRIG

Variants of: B1
Test: folding stability dG (cDNA display proteolysis); higher = more stable
Settings: PBS, room temperature
measuredEndpoint: folding stability dG (kcal/mol)
Reply numerically in kcal/mol, unit not repeated.

Use the examples below as a reference point.
{"columns": ["mutant", "folding stability dG / kcal/mol"],
 "data": [
  ["R25F", 2.07],
  ["E18S", 1.4]
]}

Query :: Name the reported folding stability dG value associated with the variant `G32S`
Result :: 0.582

Query :: Name the reported folding stability dG value associated with the variant `R36P`
Result :: 0.209

Query :: Name the reported folding stability dG value associated with the variant `T33D`
Result :: 3.11
